Target: MAGI2_5, Q86UL8
Sequence (Q86UL8 915-1017): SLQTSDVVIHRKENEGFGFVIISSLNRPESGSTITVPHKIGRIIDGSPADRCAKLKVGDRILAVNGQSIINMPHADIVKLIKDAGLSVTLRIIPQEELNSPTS
Assay: holdup assay
Set-up: key: below the threshold = too weak to quantify, mostly under pKd 3.1 to 4
Details: plain residues with an end cap or a label only (N-terminal biotin on a linker: ado-ado)
valueType: pKd

LGRSTPQSEV [DGKH, Q86XP1]	below the threshold
ETQVTAETVI [TMEM225B, P0DP42]	below the threshold
DDEDRLVIEI [ZNF831, Q5JPB2]	below the threshold
QKNRKAQEDL [CES3, Q6UWW8]	below the threshold
TSSMRGMDAV [RSRC2, Q7L4I2]	below the threshold

Request: Requested field: pKd. Item: DDENIRTSDV [PLEKHA2, Q9HB19]
Result: below the threshold

Request: Requested field: pKd. Item: RRISSLESEV [GRIN2C, Q14957]
Result: 4.96

Request: Requested field: pKd. Item: QHKTQLQTLI [BPIFA2, Q96DR5]
Result: 4.78

Request: Requested field: pKd. Item: PRISRSQSEL [CCDC134, Q9H6E4]
Result: below the threshold

Request: Requested field: pKd. Item: GQEEQVTTRL [TRPC5, Q9UL62]
Result: 3.54

Request: Requested field: pKd. Item: YNNCLEILRV [DCAF7, P61962]
Result: below the threshold

Request: Requested field: pKd. Item: YLEPVLSSEL [ATP2A2, P16615;P16615-3]
Result: 4.82
